B1: TMEM59 peptide (residues 268–280), wild type [modified: long spacer (Tds) at the N-terminal end, used for immobilisation; long spacer (Tds) at the N-terminal end, used for immobilisation] [not stated] / GST-HA-ATG16L1(231–607) … (parent)
chain 1: PLPVEQDDDIEVIVDETSDHTEETSPVRAISRAATKRLSQPAGGLLDSITNIFGRRSVSSFPVPQDNVDTHPGSGKEVRVPATALCVFDAHDGEVNAVQFSPGSRLLATGGMDRRVKLWEVFGEKCEFKGSLSGSNAGITSIEFDSAGSYLLAASNDFASRIWTVDDYRLRHTLTGHSGKVLSAKFLLDNARIVSGSHDRTLKLWDLRSKVCIKTVFAGSSCNDIVCTEQCVMSGHFDKKIRFWDIRSESIVREMELLGKITALDLNPERTELLSCSRDDLLKVIDLRTNAIKQTFSAPGFKCGSDWTRVVFSPDGSYVAAGSAEGSLYIWSVLTGKVEKVLSKQHSSSINAVAWSPSGSHVVSVDKGCKAVLWAQY
chain 2: YVPSEKLSIYGDL

Variants of: B1
Assay: peptide microarray
Details: with GST-HA-ATG16L1(231–607) [human]; ligand 800, 600, 400 nM; parent: 100
PROPERTY: percent of parent (% WT)

// known answers, use as guide
Query string: Consider the variant chain 2 Y10Q . State its measured percent of parent.
Result string: 2

Query string: Consider the variant chain 2 D12Y . State its measured percent of parent.
Result string: 180

Query string: Consider the variant chain 2 D12E . State its measured percent of parent.
Result string: 173

Query string: Consider the variant chain 2 P3G . State its measured percent of parent.
Result string: 131

a: chain 2 S4L
b: chain 2 V2Y
Query string: Hi team, can someone confirm which has the larger percent of parent: a or b ? Thanks. Reply with the label of the item you choose.
Result string: a
(a: 157 % WT, b: 90 % WT)
